Origin of measurements: ChEMBL document CHEMBL1629658

system: Pichia kudriavzevii; assay: Antifungal activity against Candida krusei isolated from candidemia patient by AFST-EUCAST microdilution method; assay type: functional
Numbered stars: 1 amine (or outer) side, 2 acyl side, 3 side chain; on linkers, the order of the positions; unused ones are H or OH. Bridge positions count the residues as written; N and C are the ends. Square brackets hold non-standard residues; d marks the D form. Peptide text beside a SMILES is read from it. * marks the point of attachment. hTyr(3S-OH,4S-OH,3'-OSO3H) = N[C@H](C(=O)O)[C@H](O)[C@@H](O)c1ccc(O)c(OS(=O)(=O)O)c1; pTerphenylCO(4''-OnC5H11) = CCCCCOc1ccc(-c2ccc(-c3ccc(C(=O)*)cc3)cc2)cc1; Orn(4R-OH,5R-OH) = O=C([C@H](C[C@@H](O)[C@@H](O)N[*:3])N[*:1])[*:2]; hTyr(3S-OH,4S-OH) = N[C@H](C(=O)O)[C@H](O)[C@@H](O)c1ccc(O)cc1; Pro(3S-OH,4S-Me) = C[C@H]1CN[C@H](C(=O)O)[C@H]1O; X1 = CCCCCOc1ccc(-c2cc(-c3ccc(C(=O)*)cc3)no2)cc1; Gln(3R-OH) = NC(=O)C[C@@H](O)[C@H](N)C(=O)O; Hyp = O=C(O)[C@@H]1C[C@@H](O)CN1
Kindly supply the reported MIC90 values for the records listed here.

Quick one: MIC90 of CCCCCOc1ccc(-c2cc(-c3ccc(C(=O)N[C@H]4C[C@@H](O)[C@@H](O)NC(=O)[C@@H]5[C@@H](O)[C@@H](C)CN5C(=O)[C@H]([C@H](O)CC(N)=O)NC(=O)[C@H]([C@H](O)[C@@H](O)c5ccc(O)c(OS(=O)(=O)O)c5)NC(=O)[C@@H]5C[C@@H](O)CN5C(=O)[C@H]([C@@H](C)O)NC4=O)cc3)no2)cc1 [MICAFUNGIN] (X1-[Orn(4R-OH,5R-OH)]T[Hyp][hTyr(3S-OH,4S-OH,3'-OSO3H)][Gln(3R-OH)][Pro(3S-OH,4S-Me)]; lactam 1-C) ?
0.12 µg/mL

Return reported MIC90; argument: CCCCCOc1ccc(-c2ccc(-c3ccc(C(=O)N[C@H]4C[C@@H](O)[C@@H](O)NC(=O)[C@@H]5[C@@H](O)[C@@H](C)CN5C(=O)[C@H]([C@@H](C)O)NC(=O)[C@H]([C@H](O)[C@@H](O)c5ccc(O)cc5)NC(=O)[C@@H]5C[C@@H](O)CN5C(=O)[C@H]([C@@H](C)O)NC4=O)cc3)cc2)cc1 [ANIDULAFUNGIN] ({pTerphenylCO(4''-OnC5H11)}-[Orn(4R-OH,5R-OH)]T[Hyp][hTyr(3S-OH,4S-OH)]T[Pro(3S-OH,4S-Me)]; lactam 1-C)
0.06 µg/mL

What does the record list as MIC90 for C[C@@H]1[C@H](O)[C@@H](C)/C=C/C=C/C=C/C=C/C=C/C=C/C=C/[C@H](O[C@@H]2O[C@H](C)[C@@H](O)[C@H](N)[C@@H]2O)C[C@@H]2O[C@](O)(C[C@@H](O)C[C@@H](O)[C@H](O)CC[C@@H](O)C[C@@H](O)CC(=O)O[C@H]1C)C[C@H](O)[C@H]2C(=O)O [AMPHOTERICIN B] ?
0.25 µg/mL
